- System: Avena fatua (AVEFA)
- Protocol Details: Example B pre-emergence herbicidal activity, glasshouse pot test
- Type: in vivo
- Setup Conditions: 312 h, rate 250 g/ha, evaluated after 13 days, scale 0-100, read-out: Pre-emergence activity AVEFA (100=total damage to plant; 0=no damage to plant)
Examples of compounds with documented pest or weed control at 250 g/ha follow.
Your answer is read as %, so omit the unit and give the number.

Recorded results for 3 compounds are shown here.
CCc1ccc(-c2ccc(Cl)cc2F)cc1C1=C(O)C(C)(C)CC(C)(C)C1=O	30
CCc1ccc(-c2ccc(Cl)cc2)cc1C1=C(O)CC(C)(C)CC1=O	20
CCc1ccc(-c2ccc(Cl)c(F)c2F)cc1C1=C(O)CCCC1=O	30

The reported pest or weed control at 250 g/ha of the compound `CCc1ccc(-c2ccc(Cl)c(F)c2)cc1C1=C(O)CCCC1=O` was 20

The reported pest or weed control at 250 g/ha of the compound `CCc1ccc(-c2ccc(Cl)nc2)cc1C1=C(O)CC(C)(C)CC1=O` was 0

###

- Test system: Avena fatua (AVEFA)
- Protocol Details: Example B pre-emergence herbicidal activity, glasshouse pot test
- Type: in vivo
- Setup Conditions: 312 h, rate 250 g/ha, evaluated after 13 days, scale 0-100, read-out: Pre-emergence activity AVEFA (100=total damage to plant; 0=no damage to plant)
Examples of compounds with documented pest or weed control at 250 g/ha follow.
Your answer is read as %, so omit the unit and give the number.

Recorded results for 4 compounds are shown here.
CCc1ccc(-c2c(F)cc(Cl)cc2F)cc1C1=C(O)CC(C)(C)CC1=O [Compound T28]	40
CCc1ccc(-c2ccc(Cl)cc2C)cc1C1=C(O)C(C)(C)CCC1=O [Compound T4]	0
CCc1ccc(-c2ccc(C(F)(F)F)cc2)cc1C1=C(O)CC(C)(C)CC1=O [Compound T34]	0
CCc1ccc(-c2ccc(Cl)cc2Cl)cc1C1=C(O)CCCC1=O [Compound T44]	0

Turning now to a further record.
The reported pest or weed control at 250 g/ha of the compound CCc1ccc(-c2ccc(Cl)cc2Cl)cc1C1=C(O)C(C)(C)CCC1=O [Compound T18] was 20

###

- Test system: Alopecurus myosuroides (ALOMY)
- Protocol Details: Example B pre-emergence herbicidal activity, glasshouse pot test
- Assay type: in vivo
- Setup Conditions: 312 h, rate 250 g/ha, evaluated after 13 days, scale 0-100, read-out: Pre-emergence activity ALOMY (100=total damage to plant; 0=no damage to plant)
Examples of molecules with documented pest or weed control at 250 g/ha follow.
Your answer is read as %, so omit the unit and give the number.

Recorded results for 8 molecules are shown here.
CCc1ccc(-c2c(F)cc(Cl)cc2F)cc1C1=C(O)C(C)(C)CCC1=O	0
CCc1ccc(-c2cc(Cl)c(Cl)cc2Cl)cc1C1=C(O)C(C)(C)CCC1=O	0
CCc1ccc(-c2ccc(Cl)c(OC)c2)cc1C1=C(O)CC(C)(C)CC1=O	40
CCc1ccc(-c2ccc(Cl)nc2Cl)cc1C1=C(O)CCCC1=O	0
CCc1ccc(-c2ccc(Cl)c(Cl)c2Cl)cc1C1=C(O)CCCC1=O	0
CCc1ccc(-c2ccc(Cl)cc2)cc1C1=C(O)CCCC1=O	40
CCc1ccc(-c2ccc(C(F)(F)F)cc2)cc1C1=C(O)CCCC1=O	100
CCc1ccc(-c2ccc(Cl)cc2Cl)cc1C1=C(O)C(C)(C)CC(C)(C)C1=O	20

Turning now to a further record.
The reported pest or weed control at 250 g/ha of the molecule `CCc1ccc(-c2ccc(Cl)c(C(F)(F)F)c2)cc1C1=C(O)CC(C)(C)CC1=O` was 30

###

- Tested on: Avena fatua (AVEFA)
- Protocol Details: Example B pre-emergence herbicidal activity, glasshouse pot test
- Type: in vivo
- Setup Conditions: 312 h, rate 250 g/ha, evaluated after 13 days, scale 0-100, read-out: Pre-emergence activity AVEFA (100=total damage to plant; 0=no damage to plant)
Examples of compounds with documented pest or weed control at 250 g/ha follow.
Your answer is read as %, so omit the unit and give the number.

Recorded results for 3 compounds are shown here.
CCc1ccc(-c2ccc(Cl)c(F)c2F)cc1C1=C(O)CC(C)(C)CC1=O	20
CCc1ccc(-c2ccc(Cl)cc2)cc1C1=C(O)CCCC1=O	40
CCc1ccc(-c2ccc(Cl)c(OC)c2)cc1C1=C(O)C(C)(C)CCC1=O	0

The reported pest or weed control at 250 g/ha of the compound `CCc1ccc(-c2ccc(Cl)c(C(F)(F)F)c2)cc1C1=C(O)CC(C)(C)CC1=O` was 20

The reported pest or weed control at 250 g/ha of the compound `CCc1ccc(-c2ccc(Cl)c(F)c2)cc1C1=C(O)C(C)(C)CCC1=O` was 20

###

- Test system: Avena fatua (AVEFA)
- Protocol Details: Example B pre-emergence herbicidal activity, glasshouse pot test
- Assay type: in vivo
- Setup Conditions: 312 h, rate 250 g/ha, evaluated after 13 days, scale 0-100, read-out: Pre-emergence activity AVEFA (100=total damage to plant; 0=no damage to plant)
Property: pest or weed control at 250 g/ha (%)
Your answer is read as %, so omit the unit and give the number.

Recorded results for 4 compounds are shown here.
CCc1ccc(-c2ccc(Cl)cc2C)cc1C1=C(O)CCCC1=O	20
CCc1ccc(-c2ccc(Cl)c(F)c2)cc1C1=C(O)CC(C)(C)CC1=O	20
CCc1ccc(-c2cc(Cl)c(Cl)cc2Cl)cc1C1=C(O)C(C)(C)CCC1=O	0
CCc1ccc(-c2ccc(Cl)cc2)cc1C1=C(O)C(C)(C)CC(C)(C)C1=O	0

Turning now to a further record.
The reported pest or weed control at 250 g/ha of the compound `CCc1ccc(-c2ccc(Cl)c(C(F)(F)F)c2F)cc1C1=C(O)CCCC1=O` was 0

###

- Test system: Lolium perenne (LOLPE)
- Protocol Details: Example B post-emergence herbicidal activity, glasshouse pot test
- Format: in vivo
- Setup Conditions: 312 h, rate 250 g/ha, evaluated after 13 days, scale 0-100, read-out: Post-emergence activity LOLPE (100=total damage to plant; 0=no damage to plant)
Property: pest or weed control at 250 g/ha
Could you give the number and then its unit, please?

Recorded results for 3 compounds are shown here.
CCc1ccc(-c2ccc(Cl)c(OC)c2)cc1C1=C(O)CCCC1=O	80%
CCc1ccc(-c2ccc(Cl)c(Cl)c2)cc1C1=C(O)C(C)(C)CCC1=O	80%
CCc1ccc(-c2ccc(Cl)c(C(F)(F)F)c2F)cc1C1=C(O)CCCC1=O	100%

Turning now to a further record.
The reported pest or weed control at 250 g/ha of the compound `CCc1ccc(-c2ccc(Cl)c(F)c2F)cc1C1=C(O)C(C)(C)CCC1=O` was 90%

###

- System: Lolium perenne (LOLPE)
- Protocol Details: Example B post-emergence herbicidal activity, glasshouse pot test
- Assay type: in vivo
- Setup Conditions: 312 h, rate 250 g/ha, evaluated after 13 days, scale 0-100, read-out: Post-emergence activity LOLPE (100=total damage to plant; 0=no damage to plant)
Entries whose pest or weed control at 250 g/ha is below 90% take MET; entries at or above 90% take NOT MET.

Solved cases (5 shown):
CCc1ccc(-c2c(F)cc(Cl)cc2F)cc1C1=C(O)CC(C)(C)CC1=O [Compound T28]	NOT MET
CCc1ccc(-c2ccc(Cl)c(Cl)c2Cl)cc1C1=C(O)CCCC1=O [Compound T54]	MET
CCc1ccc(-c2ccc(Cl)c(Cl)c2)cc1C1=C(O)CC(C)(C)CC1=O [Compound T22]	NOT MET
CCc1ccc(-c2ccc(Cl)c(C(F)(F)F)c2)cc1C1=C(O)C(C)(C)CCC1=O [Compound T8]	MET
CCc1ccc(-c2ccc(Cl)s2)cc1C1=C(O)CCCC1=O [Compound T55]	MET

Input: Please let me know if CCc1ccc(-c2ccc(Cl)cc2F)cc1C1=C(O)CCCC1=O [Compound T45] shows pest or weed control at 250 g/ha below 90%.
Output: NOT MET

Input: Please let me know if CCc1ccc(-c2ccc(Cl)nc2Cl)cc1C1=C(O)CCCC1=O [Compound T57] shows pest or weed control at 250 g/ha below 90%.
Output: MET

Input: Please let me know if CCc1ccc(-c2cc(Cl)c(Cl)cc2Cl)cc1C1=C(O)C(C)(C)CCC1=O [Compound T20] shows pest or weed control at 250 g/ha below 90%.
Output: MET

Input: Please let me know if CCc1ccc(-c2ccc(Cl)c(C(F)(F)F)c2)cc1C1=C(O)CC(C)(C)CC1=O [Compound T25] shows pest or weed control at 250 g/ha below 90%.
Output: NOT MET

Input: Please let me know if CCc1ccc(-c2ccc(Cl)cc2F)cc1C1=C(O)CC(C)(C)CC1=O [Compound T32] shows pest or weed control at 250 g/ha below 90%.
Output: NOT MET

Input: Please let me know if CCc1ccc(-c2ccc(Cl)c(F)c2Cl)cc1C1C(=O)C(C)(C)CC(C)(C)C1=O [Compound T63] shows pest or weed control at 250 g/ha below 90%.
Output: MET

Every entry's value here was drawn from patent US8741806B2.
